From: patent US8003649B2

Molecular target: Androgen Receptor (AR) (Homo sapiens, UniProt P10275, T878A)
Construct: cell based immuno-fluorescence assay using the LNCaP prostate epithelial cell line; endogenous in cells; host or cells: LNCaP clone FGC (ATCC CRL-1740)
Sequence (P10275 whole entry T878A): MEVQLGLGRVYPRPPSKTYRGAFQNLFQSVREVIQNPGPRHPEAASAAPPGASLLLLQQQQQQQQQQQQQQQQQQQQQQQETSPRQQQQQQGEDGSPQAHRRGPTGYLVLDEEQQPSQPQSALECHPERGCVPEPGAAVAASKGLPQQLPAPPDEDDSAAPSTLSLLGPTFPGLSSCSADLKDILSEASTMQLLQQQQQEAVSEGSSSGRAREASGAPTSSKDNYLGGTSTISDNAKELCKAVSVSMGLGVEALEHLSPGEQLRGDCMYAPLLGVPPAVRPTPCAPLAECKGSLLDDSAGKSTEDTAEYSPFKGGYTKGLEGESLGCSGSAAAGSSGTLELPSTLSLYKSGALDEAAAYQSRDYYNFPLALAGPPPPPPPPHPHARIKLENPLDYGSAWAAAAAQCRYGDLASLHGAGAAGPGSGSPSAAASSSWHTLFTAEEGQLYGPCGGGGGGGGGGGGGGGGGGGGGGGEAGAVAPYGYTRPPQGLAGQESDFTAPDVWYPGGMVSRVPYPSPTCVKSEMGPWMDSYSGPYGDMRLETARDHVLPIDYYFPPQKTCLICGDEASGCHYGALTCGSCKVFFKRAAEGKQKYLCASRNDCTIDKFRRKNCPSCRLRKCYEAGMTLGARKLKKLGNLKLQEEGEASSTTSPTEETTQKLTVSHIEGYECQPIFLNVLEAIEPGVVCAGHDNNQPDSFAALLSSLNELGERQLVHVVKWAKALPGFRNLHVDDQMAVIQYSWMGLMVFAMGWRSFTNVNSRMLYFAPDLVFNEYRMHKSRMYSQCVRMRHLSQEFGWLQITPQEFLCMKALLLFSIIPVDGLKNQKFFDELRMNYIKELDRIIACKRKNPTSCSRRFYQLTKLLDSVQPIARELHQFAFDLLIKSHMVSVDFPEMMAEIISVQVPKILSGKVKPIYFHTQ
Assay: LNCaP Androgen Receptor Down-regulation Cell Assay (immunofluorescence end point)
Assay type: cell-based
Settings: LNCaP prostate carcinoma cells, compound incubation 20-22 hours, 50% reduction of the AR signal; read-out: Androgen Receptor Down-regulation Assay (a) IC50/μM
Quick list: DC50 per entry.

>  <SMILES ENTRY>
C[C@H]1CN(Cc2cncc(F)c2)CCN1c1ccc2nnc(C(F)(F)F)n2n1

>  <UNIT TAG>
µM

>  <COMPARISON SYMBOL>
>

>  <DC50>
33

$$$$
>  <SMILES ENTRY>
Fc1ccccc1OC1CCN(c2ccc3nnc(C(F)(F)F)n3n2)CC1

>  <UNIT TAG>
µM

>  <COMPARISON SYMBOL>
=

>  <DC50>
1.9

$$$$
>  <SMILES ENTRY>
FC(F)(F)c1nnc2ccc(N3CCN(Cc4nc5ccccc5o4)CC3)nn12

>  <UNIT TAG>
µM

>  <COMPARISON SYMBOL>
=

>  <DC50>
3.2

$$$$
>  <SMILES ENTRY>
CC(C)(C)Oc1ccc(CN2CCN(c3ccc4nnc(C(F)(F)F)n4n3)CC2)cc1

>  <UNIT TAG>
µM

>  <COMPARISON SYMBOL>
=

>  <DC50>
6.5

$$$$
>  <SMILES ENTRY>
OCCOc1cccc(C2CCN(c3ccc4nnc(C(F)(F)F)n4n3)CC2)c1

>  <UNIT TAG>
µM

>  <COMPARISON SYMBOL>
=

>  <DC50>
0.74

$$$$
>  <SMILES ENTRY>
C[C@@H]1CN(c2ccc3nnc(C(F)(F)F)n3n2)CCN1Cc1ccc(C#N)cc1

>  <UNIT TAG>
µM

>  <COMPARISON SYMBOL>
=

>  <DC50>
3.5

$$$$
>  <SMILES ENTRY>
O=C(c1ccc(OC2CCN(c3ccc4nnc(C(F)(F)F)n4n3)CC2)cc1)N1CC[C@@H](O)C1

>  <UNIT TAG>
µM

>  <COMPARISON SYMBOL>
>

>  <DC50>
14

$$$$
>  <SMILES ENTRY>
FC(F)Oc1cccc(CN2CCN(c3ccc4nnc(C(F)(F)F)n4n3)CC2)c1

>  <UNIT TAG>
µM

>  <COMPARISON SYMBOL>
=

>  <DC50>
1

$$$$
>  <SMILES ENTRY>
N#Cc1cccc(OC2CCN(c3ccc4nnc(C(F)(F)F)n4n3)CC2)c1

>  <UNIT TAG>
µM

>  <COMPARISON SYMBOL>
=

>  <DC50>
0.89

$$$$
>  <SMILES ENTRY>
Cn1nccc1COc1ccc(OC2CCN(c3ccc4nnc(C(F)(F)F)n4n3)CC2)cc1

>  <UNIT TAG>
µM

>  <COMPARISON SYMBOL>
=

>  <DC50>
0.44

$$$$
>  <SMILES ENTRY>
FC(F)(F)c1nnc2ccc(N3CCN(Cc4c[nH]c5ccc(Cl)cc45)CC3)nn12

>  <UNIT TAG>
µM

>  <COMPARISON SYMBOL>
=

>  <DC50>
0.78

$$$$
>  <SMILES ENTRY>
CN1CCN(C(=O)c2ccc3[nH]cc(C4CCN(c5ccc6nnc(C(F)(F)F)n6n5)CC4)c3c2)CC1

>  <UNIT TAG>
µM

>  <COMPARISON SYMBOL>
=

>  <DC50>
2.8

$$$$
>  <SMILES ENTRY>
FC(F)(F)c1nnc2ccc(N3CCN(Cc4ccc(-c5cccnc5)cc4)CC3)nn12

>  <UNIT TAG>
µM

>  <COMPARISON SYMBOL>
=

>  <DC50>
1.7

$$$$
>  <SMILES ENTRY>
N#Cc1ccccc1OCC1CCN(c2ccc3nnc(C(F)(F)F)n3n2)CC1

>  <UNIT TAG>
µM

>  <COMPARISON SYMBOL>
=

>  <DC50>
1.8

$$$$
>  <SMILES ENTRY>
CCOC(=O)c1cncc(C2=CCN(c3ccc4nnc(C(F)(F)F)n4n3)CC2)c1

>  <UNIT TAG>
µM

>  <COMPARISON SYMBOL>
=

>  <DC50>
2.7

$$$$
